Measured values drawn from patent US20250312491A1 for this set.

System: human TTR gene
TEST: Base editing in primary human hepatocytes co-transfected with gRNA and ABE8.8 mRNA, NGS
Type: cell-based
CONDITION_LABEL: 2500 ng/RNA/mL, rep 1, 3 days after transfection

MOLECULE	UNIT_INFO	Human hepatocytes- Editing % 2500, rep 1
GA457: guide RNA, human TTR, protospacer GCCATCCTGCCAAGAATGAG (SEQ ID NO: 24), gRNA SEQ ID NO: 11 (nucleic acid, chemistry not given here) guide: GCCATCCTGCCAAGAATGAGGTTTTAGAGCTAGAAATAGCAAGTTAAAATAAGGCTAGTCCGTTATCAACTTGAAAAAGTGGCACCGAGTCGGTGCTTTT	%	33.96
GA461: guide RNA, human/cyno TTR, protospacer TACTCACCTCTGCATGCTCA (SEQ ID NO: 27), gRNA SEQ ID NO: 15 (nucleic acid, chemistry not given here) guide: TACTCACCTCTGCATGCTCAGTTTTAGAGCTAGAAATAGCAAGTTAAAATAAGGCTAGTCCGTTATCAACTTGAAAAAGTGGCACCGAGTCGGTGCTTTT	%	40.42
GA459: guide RNA, human TTR, protospacer GCAACTTACCCAGAGGCAAA (SEQ ID NO: 25), gRNA SEQ ID NO: 13 (nucleic acid, chemistry not given here) guide: GCAACTTACCCAGAGGCAAAGTTTTAGAGCTAGAAATAGCAAGTTAAAATAAGGCTAGTCCGTTATCAACTTGAAAAAGTGGCACCGAGTCGGTGCTTTT	%	8.5
GA460: guide RNA, human/cyno TTR, protospacer TATAGGAAAACCAGTGAGTC (SEQ ID NO: 26), gRNA SEQ ID NO: 14 (nucleic acid, chemistry not given here) guide: TATAGGAAAACCAGTGAGTCGTTTTAGAGCTAGAAATAGCAAGTTAAAATAAGGCTAGTCCGTTATCAACTTGAAAAAGTGGCACCGAGTCGGTGCTTTT	%	47.61
